molecular target: GST-Syk Full Protein (human) (Homo sapiens, UniProt P43405); test: Syk kinase inhibition test (HTRF method); format: biochemical; conditions: HTRF, 100 μM ATP, 30 min room temperature, average; read-out: sykHTRF ave IC50
Field: IC50. Provide a value for each of the molecules that follow.

{"smiles.input": "Cc1ccnc(Nc2cccc(-c3cnc([C@H]4CC[C@H](C(=O)N5CCOCC5)CC4)s3)n2)c1", "assay.metric": "IC50", "value.measured": "100 to 1000 nM"}
{"smiles.input": "Cc1ccnc(Nc2cccc(-c3cnc(CCC4CCC(=O)CC4)s3)n2)c1", "assay.metric": "IC50", "value.measured": "< 100 nM"}

# ---- query molecule ----
Incoming: Output IC50 of `Cc1ccnc(Nc2cccc(-c3cnc(COCC(N)=O)s3)n2)c1`
Outgoing: 100 to 1000 nM
